Target: T1, CD27 expressed on the cell surface of HT1080_CD27 cells (human, UniProt P26842 20-260); further: test concentration or dose not given here
T1 sequence (looked up): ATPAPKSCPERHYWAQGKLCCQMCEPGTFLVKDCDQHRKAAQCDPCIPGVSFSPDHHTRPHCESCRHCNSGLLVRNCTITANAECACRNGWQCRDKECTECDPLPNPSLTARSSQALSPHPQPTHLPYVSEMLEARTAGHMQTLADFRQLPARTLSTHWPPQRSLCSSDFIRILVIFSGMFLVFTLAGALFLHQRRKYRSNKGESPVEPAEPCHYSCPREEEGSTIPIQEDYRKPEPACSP
Assay: cell-based or functional assay
property-name: Functional assay Cross-linked by F(ab′)2 fragment IL-8 (abs. corr.)

- binder: "P018.S.07.A.D05 (antibody, V domains shown, V regions on human Ig constant parts; also called AB27_124) VH: QSLEESGGDLVKPEGSLTLTCTASGFSFSSSYWICWVRQAPGKGLEWIGCMITGRGNTYYATWAKGRFTISKTSSTTVTLQMTSLTAADTATYFCARGPGGADPINLWGPGTLVTVSS VL: DVVMTQTPASVSEPVGGTVTIKCQASQNIYNNLAWYQQKPGQPPKLLIYLASTLASGVPSRFEGSGSGTEFTLTISGVQSDDAATYYCQSTYDGSSYVPNAFGGGTEVVVK"
  test-value: 1.64
- binder: "P018.S.03.A.G05 (antibody, V domains shown, V regions on human Ig constant parts; also called AB27_58) VH: QSLEESGGDLVKPEGSLTLTCTASGFSFSSGGWICWVRQAPGRGLEWIACIYVGSSGTTHYASWAKGRFTISKTSSTTVTLQMTSLTAADTATYFCARGAVYGGGSYDNFHLWGPGTLVTVSS VL: AYDMTQTPASVSEPVGGTVTIKCQASQSIGSYLSWYQQKPGQRPKLLIYAASTLASGVQSRFKGSGSGTDYTLTISGVQSDDAATYYCQQGYNISNLDNTFGGGTEVVVK"
  test-value: 1.27
- binder: "P018.S.04.A.E05 (antibody, V domains shown, V regions on human Ig constant parts; also called AB27_76) VH: QSLEESGGDLVKPGASLTLTCTASGFSFSSDYYMCWVRQAPGKGLEWIACISAGSSGSIYYASWAKGRFTISKTSSTTVTLQMTSLTAADTATYFCAREASDSIYYPIFNLWGPGTLVTVSS VL: AAVLTQTPSPVSAAVGGTVSISCQSSKSVYNNNALSWFQQKPGQPPKLLIYGASTLPSRVPSRFKGSGSGTQFTLTISDVQSDDAATYYCIGGYSSSSDTNAFGGGTEVVVK"
  test-value: 1.77
- binder: "P018.S.05.A.A06 (antibody, V domains shown, V regions on human Ig constant parts; also called AB27_82) VH: QSLEESGGRLVTPGTPLTLTCTVSGIDLNNNAMSWVRQAPGEGLEWIGIISTAGTTTYASWTKGRFTISKTSTTVDLKITSPTTEDTATYFCARAAYFSYGYINLWGQGTLVTVSS VL: DIVMTQTPASVEAAVGGTVTIKCQASQNIGNALAWYQQKSGQPPKLLIYSASTLASGVPSRFKGSGSGTEFTLTISDLESADATTYFCQSYVYSDGNVFGGGTEVVVK"
  test-value: 1.58
- binder: "P018.S.07.A.A02 (antibody, V domains shown, V regions on human Ig constant parts; also called AB27_113) VH: QSVEESGGRLVTPGTPLTLTCTVSGFSLSSYVMSWVRQAPGKGLEWIGYIDYGGAPYYASWAKGRFTISKTSTTVELKITSPTIEDTATYFCARGGYGGYVLVTVLWGPGTLVTVSS VL: DVVMTQTPASVSEPVGGTVTIKCQASQNIYSSLAWYQQKPGQPPKLLIYQASRLASEVPSRFKGSGSGTEFTLTISDLESADAATYYCQTYYGGSTYGNGFGGGTEVVVE"
  test-value: 1.85
